test: Liver microsome stability test, human (HLM); format: in vitro ADME; conditions: human liver microsomes, NADPH; read-out: T1/2 (min) Human
value-kind: half-life (min)

Known results for compounds:
compound	half-life / min
CNC(=O)c1ccc(NCC#Cc2cc3c(NC4CCC(N5CC6(COC6)C5)CC4F)cccn3c2CC(F)(F)F)c(OC)c1 (single isomer, unassigned) [Compound 65d]	65.3
[2H]C([2H])([2H])NC(=O)c1ccc(NCC#Cc2nc3c(NC4CC[C@@H](N5CC6(COC6)C5)C[C@@H]4F)cccn3c2CC(F)(F)F)c(OC([2H])([2H])[2H])c1 (stereo partly drawn)	44
COc1cc(C(=O)NC2CC2)ccc1NCC#Cc1nc2c(NC3CC[C@@H](N4CC5(COC5)C4)C[C@@H]3F)cccn2c1CC(F)(F)F (stereo partly drawn)	32

I. [2H]C([2H])([2H])NC(=O)c1ccc(NCC#Cc2cc3c(NC4CCC(N5CC6(COC6)C5)CC4F)cccn3c2CC(F)(F)F)c(OC([2H])([2H])[2H])c1 (single isomer, unassigned) [Compound 74d]
II. CNC(=O)c1ccc(NCC#Cc2nc3c(NC4CC[C@@H](N5CC6(COC6)C5)C[C@@H]4F)cccn3c2CC(F)(F)F)c(OCF)c1 (stereo partly drawn)
III. CNC(=O)c1ccc(NCC#Cc2cc3c(N[C@@H]4CCN(C)C[C@@H]4F)cccc3n2CC(F)(F)F)c(OC)c1 [Reference compound, reference compound]
Write the entries in order, lowest recorded half-life first. Rank the items, then write their labels in that order.
III, II, I
(III: 24.9 min, II: 37.5 min, I: 55.8 min)

* * *

Overview of reported GI50 across a group of molecules:
test system: NUGC-3 cells; assay: NUGC-3 cell proliferation assay (CTG); type: cell-based, human; settings: Homo sapiens, NUGC-3, 144 h, 6 days, CTG

molecule	GI50
COc1cc(C(=O)NC2CCOCC2)ccc1NCC#Cc1nc2c(NC3CCN(C)CC3)cccn2c1CC(F)(F)F [Compound 29]	1000 to 5000 nM
[2H]C([2H])([2H])NC(=O)c1ccc(NCC#Cc2cc3c(NC4CCC(N5CC6(COC6)C5)CC4F)cccn3c2CC(F)(F)F)c(OCF)c1 (stereo not drawn) [Compound 78d]	< 1000 nM

Next:
Which value of GI50 has been reported for [2H]C([2H])([2H])NC(=O)c1ccc(NCC#Cc2nc3c(NC4CC[C@@H](N5CC6(COC6)C5)C[C@@H]4F)cccn3c2CC(F)(F)F)c(OC([2H])([2H])[2H])c1 (stereo partly drawn) [Compound 64] in the records?
< 1000 nM

* * *

Catalogue of molecules with associated EC50
biological target: p53 Y220C (Homo sapiens, UniProt P04637, P309S/R273H/Y220C); construct: a truncated mutant containing only amino acids 94-312 of p53; test: DNA binding test (HTRF): binding of P53Y220C protein to DNA; settings: HTRF, activation of p53 Y220C (aa 94-312) binding to biotin DNA

Use these answered entries as a reference point.
>>> df
                                   molecule                               target_desc       measured
0  CNC(=O)c1ccc(NCC#Cc2nc3c(N[C@@H]4CCN(C)C[C@@H]4F)cccn3c2CC(F)(F)F)c(OC)c1 [Compound 5]  p53 Y220C (Homo sapiens, UniProt P04637, P309S/R273H/Y220C)       < 100 nM
1  CNC(=O)c1ccc(NCC#Cc2nc3c(NC4CCC(N5CC6(COC6)C5)CC4F)cccn3c2CC(F)(F)F)c(OC)c1 (single isomer, unassigned) [Compound 35-6e]  p53 Y220C (Homo sapiens, UniProt P04637, P309S/R273H/Y220C)  100 to 500 nM
2  CNC(=O)c1ccc(NCC#Cc2nc3c(N[C@@H]4CC[C@@H](N5CCCC5)C[C@@H]4F)cccn3c2CC(F)(F)F)c(OC)c1 [Compound 41]  p53 Y220C (Homo sapiens, UniProt P04637, P309S/R273H/Y220C)       < 100 nM
3  CNC(=O)c1ccc(NCC#Cc2nc3c(N[C@@H]4CC[C@@H](N5CC6(COC6)C5)C[C@@H]4F)cccn3c2CC(F)(F)F)c(OCF)c1 [Compound 58]  p53 Y220C (Homo sapiens, UniProt P04637, P309S/R273H/Y220C)       < 100 nM
4  CNC(=O)c1ccc(NCC#Cc2nc3c(NC4CCC(N5CC6CCC(C5)O6)CC4)cccn3c2CC(F)(F)F)c(OC)c1 (stereo not drawn) [Compound 34]  p53 Y220C (Homo sapiens, UniProt P04637, P309S/R273H/Y220C)  100 to 500 nM

Turning now to a further molecule:
What value of EC50 has been reported for the following molecule? CNC(=O)c1ccc(NCc2nnc(-c3nc4c(NC5CCN(C)CC5)cccn4c3CC(F)(F)F)s2)c(OC)c1 [Compound 18]
100 to 500 nM

* * *

test: Pharmacokinetic test in mice; assay type: in vivo; settings: male, ICR, plasma, 2.5 mg/kg; mouse, iv 2.5 mpk
value-kind: clearance (mL/min/kg)

molecule	clearance / mL/min/kg
[2H]C([2H])([2H])NC(=O)c1ccc(NCC#Cc2cc3c(NC4CCC(N5CC6(COC6)C5)CC4F)cccn3c2CC(F)(F)F)c(OC([2H])([2H])[2H])c1 (single isomer, unassigned) [Compound 74d]	17

1. CNC(=O)c1ccc(NCC#Cc2nc3c(NC4CCC(N5CC6(COC6)C5)CC4F)cccn3c2CC(F)(F)F)c(OC)c1 (single isomer, unassigned) [Compound 35-6i]
2. CNC(=O)c1ccc(NCC#Cc2nc3c(N[C@@H]4CCN(C)C[C@@H]4F)cccn3c2CC(F)(F)F)c(OC)c1 [Compound 5]
3. [2H]C([2H])([2H])NC(=O)c1ccc(NCC#Cc2nc3c(NC4CCC(N5CCOCC5)CC4F)cccn3c2CC(F)(F)F)c(OC([2H])([2H])[2H])c1 (single isomer, unassigned) [Compound 70d]
Order the entries by their reported clearance, beginning at the minimum. Order the labels as requested and list them.
3, 1, 2
(3: 11 mL/min/kg, 1: 20 mL/min/kg, 2: 54 mL/min/kg)

* * *

assay: Caco-2 cell permeability test; assay type: in vitro ADME; details: human, pH 7.4, Caco-2, 10 μM
value-kind: efflux ratio at 120 min, 10 μM

Examples with their reported efflux ratio at 120 min, 10 μM follow.
molecule	measured
CNC(=O)c1ccc(NCC#Cc2nc3c(N[C@@H]4CCN(C)C[C@@H]4F)cccn3c2CC(F)(F)F)c(OC)c1	8.27
CNC(=O)c1ccc(NCC#Cc2nc3c(NC4CCC(N5CCOCC5)C[C@@H]4F)cccn3c2CC(F)(F)F)c(OC)c1 (stereo partly drawn)	1.79
COc1cc(C(=O)N(C)C)ccc1NCC#Cc1nc2c(NC3CC[C@@H](N4CC5(COC5)C4)C[C@@H]3F)cccn2c1CC(F)(F)F (stereo partly drawn)	1.52
CNC(=O)c1ccc(NCC#Cc2nc3c(NC4CC[C@@H](N5CC6(CCC6)C5)C[C@@H]4F)cccn3c2CC(F)(F)F)c(OC)c1 (stereo partly drawn)	1.72
CNC(=O)c1ccc(NCC#Cc2nc3c(NC4CC[C@@H](N5CC6(COC6)C5)C[C@@H]4F)cccn3c2CC(F)(F)F)c(OC2CC2)c1 (stereo partly drawn)	1.84
[2H]C([2H])([2H])NC(=O)c1ccc(NCC#Cc2nc3c(NC4CC[C@@H](N5CC6(COC6)C5)C[C@@H]4F)cccn3c2CC(F)(F)F)c(OC([2H])([2H])[2H])c1 (stereo partly drawn)	1.22
CNC(=O)c1ccc(NCC#Cc2nc3c(NC4CC[C@@H](N5CC6(COC6)C5)C[C@@H]4F)cccn3c2CC(F)(F)F)c(OCF)c1 (stereo partly drawn)	3.09

a. CNC(=O)c1ccc(NCC#Cc2nc3c(NC4CCC(N5CC6(COC6)C5)CC4F)cccn3c2CC(F)(F)F)c(OC)c1 (single isomer, unassigned)
b. COc1cc(C(=O)NC2CC2)ccc1NCC#Cc1nc2c(NC3CC[C@@H](N4CC5(COC5)C4)C[C@@H]3F)cccn2c1CC(F)(F)F (stereo partly drawn)
Rank a against b by their efflux ratio at 120 min, 10 μM values and give the higher one. Choose, then provide that item's label.
a
(a: 4.31, b: 2.24)

* * *

target: CYP 3A4 (Homo sapiens); construct: purchased BioIVT X008067; assay: CYP 3A4 time-dependent inhibition test; format: in vitro ADME; details: 0 min pre-incubation, midazolam substrate; read-out: IC50 (μM) 0 min
Sequence (P08684 whole entry): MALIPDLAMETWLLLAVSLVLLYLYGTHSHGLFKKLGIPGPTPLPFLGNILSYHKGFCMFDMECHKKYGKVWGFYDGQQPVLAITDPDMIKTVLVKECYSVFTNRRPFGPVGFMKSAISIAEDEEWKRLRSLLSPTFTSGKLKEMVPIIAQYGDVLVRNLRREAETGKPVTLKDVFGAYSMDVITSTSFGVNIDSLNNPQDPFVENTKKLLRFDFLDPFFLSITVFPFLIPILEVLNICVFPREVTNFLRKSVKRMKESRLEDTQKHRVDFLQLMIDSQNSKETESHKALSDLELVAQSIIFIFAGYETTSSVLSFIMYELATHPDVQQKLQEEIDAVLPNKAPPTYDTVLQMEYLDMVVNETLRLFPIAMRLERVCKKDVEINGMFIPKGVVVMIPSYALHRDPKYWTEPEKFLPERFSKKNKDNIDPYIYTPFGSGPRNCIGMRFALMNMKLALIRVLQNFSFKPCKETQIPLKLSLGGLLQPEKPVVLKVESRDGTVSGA
value-kind: IC50 (µM)

molecule	value-kind	measured
CNC(=O)c1ccc(NCC#Cc2nc3c(NC4CCC(N5CC6(COC6)C5)CC4F)cccn3c2CC(F)(F)F)c(OC)c1 (single isomer, unassigned) [Compound 35-6i]	IC50	7.48
[2H]C([2H])([2H])NC(=O)c1ccc(NCC#Cc2cc3c(NC4CCC(N5CC6(COC6)C5)CC4F)cccn3c2CC(F)(F)F)c(OC([2H])([2H])[2H])c1 (single isomer, unassigned) [Compound 74d]	IC50	4.55
CNC(=O)c1ccc(NCC#Cc2nc3c(N[C@@H]4CCN(C)C[C@@H]4F)cccn3c2CC(F)(F)F)c(OC)c1 [Compound 5]	IC50	8.05

1. [2H]C([2H])([2H])NC(=O)c1ccc(NCC#Cc2nc3c(NC4CCC(N5CCOCC5)CC4F)cccn3c2CC(F)(F)F)c(OC([2H])([2H])[2H])c1 (single isomer, unassigned) [Compound 70d]
2. CNC(=O)c1ccc(NCC#Cc2cc3c(N[C@@H]4CCN(C)C[C@@H]4F)cccc3n2CC(F)(F)F)c(OC)c1 [Reference compound, reference compound]
Of the two listed items, which has the higher IC50? First: 1 Second: 2 Field: selected label. Fill in the label of the entry you choose.
1
